Run description: AUC (infinity) in Sprague-Dawley rat at 1 mg/kg, iv
Assay type: ADME, organism-based
Set-up: time infinity, dose 1 mg/kg, route intravenous
Measurement context: plasma
Readout label: AUC(0-inf) (ng·h/mL)

[[record]]
smiles_string = "Cc1c2c(=O)n(-c3ccccc3)[nH]c2cc(=O)n1Cc1cccnc1"
readout_label = "AUC(0-inf)"
data_value = 196


* * *

Run description: Clearance in Sprague-Dawley rat at 1 mg/kg, iv
Type: ADME, organism-based
Design: dose 1 mg/kg, route intravenous
Measurement context: in vivo
Readout label: clearance (mL/min/kg)

[[record]]
smiles_string = "Cc1c2c(=O)n(-c3ccccc3)[nH]c2cc(=O)n1Cc1cccnc1"
data_value = 85.2


Reference for the values: ChEMBL document CHEMBL1275350
